The measured values listed here are drawn from patent US20100143992A1.

- protocol summary: Extraction of ethanol from an aqueous solution by ionic liquid
- Format: physicochemical
- condition summary: 3 mL aqueous solution, about 31 g/L ethanol, 5 vol % ionic liquid, overnight equilibration; control 30.2
Can you tell me g/L ethanol left in solution for the items I'm about to list?
Give bare numbers, in g/L.

// worked examples, g/L ethanol left in solution included
compound	g/L ethanol left in solution, g/L
CCOCC[N+](C)(C)CCN1C(=O)CCC1C (stereo not shown) [[MeDMEEAP] [Tf2N]]	29.4
COCC[N+](C)(C)CCN1C(=O)CCC1C.O=S(=O)([N-]S(=O)(=O)C(F)(F)F)C(F)(F)F (stereo not shown) [[[MeDMMEAP] [Tf2N]]	29.6
COCC[N+](C)(C)CCN1C(=O)CCC1C (stereo not shown) [[MeDMMEAP] [HFPS]]	29.7

--- query ---
Which value of g/L ethanol left in solution has been reported for CCOCC[N+](C)(C)CCN1C(=O)CCC1C (stereo not shown) [[MeDMEEAP] [HFPS]] in the records?
30.2

----------
- protocol summary: Extraction of isobutanol from an aqueous solution by ionic liquid
- Type: physicochemical
- condition summary: 3 mL aqueous solution, about 31 g/L isobutanol, 5 vol % ionic liquid, overnight equilibration; control 436
Decide using mM isobutanol (in solution after extraction): a value greater than or equal to 400 mM is yes (1), a smaller one is no (0).

Example cases with answers are listed next.
compound	group
CCOCC[N+](C)(C)CCN1C(=O)CCC1C (stereo not drawn) [[MeDMEEAP] [HFPS]]	yes (1)
COCC[N+](C)(C)CCN1C(=O)CCC1C (stereo not drawn) [[MeDMMEAP] [HFPS]]	yes (1)
CCC[N+](C)(C)CCN1C(=O)CCC1C.O=S(=O)([N-]S(=O)(=O)C(F)(F)F)C(F)(F)F (stereo not drawn) [[MeDMPAP] [Tf2N]]	no (0)

Next:
hey, is mM isobutanol (in solution after extraction) for this one >= 400 mM? CC1CCC(=O)N1CC[N+](C)(C)CCO.O=S(=O)([N-]S(=O)(=O)C(F)(F)F)C(F)(F)F (stereo not drawn) [[MeDHEAP] [Tf2N]]
yes (1)

----------
- protocol summary: Extraction of isobutanol from an aqueous solution by ionic liquid
- Format: physicochemical
- condition summary: 5 vol % ionic liquid; percentage of alcohol remaining in control
assay endpoint: % isobutanol Extracted (%)
One number for each entry, in %.

As a guide, the following entries are already answered.
compound	unit tag	value measured
CC1CCC(=O)N1CC[N+](C)(C)CCO.O=S(=O)([N-]S(=O)(=O)C(F)(F)F)C(F)(F)F (stereo not drawn) [[MeDHEAP] [Tf2N]]	%	4.68
COCC[N+](C)(C)CCN1C(=O)CCC1C (stereo not drawn) [[MeDMMEAP] [HFPS]]	%	3.00

Please state % isobutanol Extracted for every compound in the list that follows.
1. CCOCC[N+](C)(C)CCN1C(=O)CCC1C (stereo not drawn) [[MeDMEEAP] [HFPS]]
2. CCC[N+](C)(C)CCN1C(=O)CCC1C.O=S(=O)([N-]S(=O)(=O)C(F)(F)F)C(F)(F)F (stereo not drawn) [[MeDMPAP] [Tf2N]]
3. CCOCC[N+](C)(C)CCN1C(=O)CCC1C (stereo not drawn) [[MeDMEEAP] [Tf2N]]
4. COCC[N+](C)(C)CCN1C(=O)CCC1C.O=S(=O)([N-]S(=O)(=O)C(F)(F)F)C(F)(F)F (stereo not drawn) [[[MeDMMEAP] [Tf2N]]

[3.38, 12.7, 9.48, 12.1]
